system: HLA-A*01:01
test protocol: IEDB peptide-MHC binding, purified MHC/direct/fluorescence; filed as Kd, often an IC50 or EC50 that approximates it; bounds were set here for any values at or beyond the usual limits of such assays
condition label: source organism: Sudan ebolavirus - Maleo (1979)
experimental endpoint: pKd
Answers are plain numbers, as −log10 of the molar value.

Memo: "YSGNIVHRY" , reported pKd: 7.05

###

system: HLA-C*14:02
test protocol: IEDB peptide-MHC binding, purified MHC/competitive/fluorescence; filed as Kd, often an IC50 or EC50 that approximates it; bounds were set here for any values at or beyond the usual limits of such assays
condition label: source organism: Bacillus cereus G9241
experimental endpoint: Kd
Please state the value followed by its unit.

Recorded Kd (sequence "YYKKTFSAL" ): 0.4 nM
